Source listed as ChEMBL document CHEMBL1949621.

target: Bacterial 70S ribosome; assay: Inhibition of Escherichia coli ribosome-mediated translation after 60 mins by transcription/translation-coupled luciferase reporter gene assay
Listed here are compounds together with their documented IC50.
Value kind: IC50 (nM)

chem_smiles=CN(C)[C@@H]1C(O)=C(C(N)=O)C(=O)[C@@]2(O)C(O)=C3C(=O)c4c(O)cccc4[C@@](C)(O)[C@H]3C[C@@H]12 subject_of_test="Bacterial 70S ribosome" value_kind=IC50 endpoint_unit=nM quantitative_readout=4580
chem_smiles=CN(C)[C@@H]1C(O)=C(C(N)=O)C(=O)[C@@]2(O)C(O)=C3C(=O)c4c(O)c(NC(=O)CN5CCCC5)cc(F)c4C[C@H]3C[C@@H]12 subject_of_test="Bacterial 70S ribosome" value_kind=IC50 endpoint_unit=nM quantitative_readout=620

====

Listed here are molecules together with their documented AUC(0-t).
assay: AUClast in Sprague-Dawley rat at 10 mg/kg, po by LC/MS-MS analysis; format: ADME, organism-based; parameters: dose 10 mg/kg, route oral, time 0 - last; settings: plasma
Value kind: AUC(0-t) (ng·h/mL)

chem_smiles=CN(C)[C@@H]1C(O)=C(C(N)=O)C(=O)[C@@]2(O)C(O)=C3C(=O)c4c(O)cccc4[C@@](C)(O)[C@H]3C[C@@H]12 endpoint_unit=ng·h/mL quantitative_readout=4540
chem_smiles=CN(C)[C@@H]1C(O)=C(C(N)=O)C(=O)[C@@]2(O)C(O)=C3C(=O)c4c(O)c(NC(=O)CN5CCCC5)cc(F)c4C[C@H]3C[C@@H]12 endpoint_unit=ng·h/mL quantitative_readout=295
chem_smiles=CN(C)c1cc(NC(=O)CNC(C)(C)C)c(O)c2c1C[C@H]1C[C@H]3[C@H](N(C)C)C(O)=C(C(N)=O)C(=O)[C@@]3(O)C(O)=C1C2=O endpoint_unit=ng·h/mL quantitative_readout=107

====

test: Oral bioavailability in Sprague-Dawley rat at 10 mg/kg by LC/MS-MS analysis; type: ADME, organism-based; details: in vivo
Value kind: bioavailability (%)

chem_smiles=CN(C)c1cc(NC(=O)CNC(C)(C)C)c(O)c2c1C[C@H]1C[C@H]3[C@H](N(C)C)C(O)=C(C(N)=O)C(=O)[C@@]3(O)C(O)=C1C2=O value_kind=bioavailability quantitative_readout=1
chem_smiles=CN(C)[C@@H]1C(O)=C(C(N)=O)C(=O)[C@@]2(O)C(O)=C3C(=O)c4c(O)c(NC(=O)CN5CCCC5)cc(F)c4C[C@H]3C[C@@H]12 value_kind=bioavailability quantitative_readout=1.7
chem_smiles=CN(C)[C@@H]1C(O)=C(C(N)=O)C(=O)[C@@]2(O)C(O)=C3C(=O)c4c(O)cccc4[C@@](C)(O)[C@H]3C[C@@H]12 value_kind=bioavailability quantitative_readout=14.9

====

tested on: Acinetobacter baumannii; experiment: Antibacterial activity against Acinetobacter baumannii ATCC 19606 110; format: functional
Value kind: MIC (µg/mL)

chem_smiles=CN(C)[C@@H]1C(O)=C(C(N)=O)C(=O)[C@@]2(O)C(O)=C3C(=O)c4c(O)c(NC(=O)CN5CCC5)cc(F)c4C[C@H]3C[C@@H]12 subject_of_test="Acinetobacter baumannii" value_kind=MIC relation_symbol== quantitative_readout=2
chem_smiles=COCCNCC(=O)Nc1cc(F)c2c(c1O)C(=O)C1=C(O)[C@]3(O)C(=O)C(C(N)=O)=C(O)[C@@H](N(C)C)[C@@H]3C[C@@H]1C2 subject_of_test="Acinetobacter baumannii" value_kind=MIC relation_symbol== quantitative_readout=2
chem_smiles=CN(C)[C@@H]1C(O)=C(C(N)=O)C(=O)[C@@]2(O)C(O)=C3C(=O)c4c(O)c(NC(=O)CNC(C)(C)C)cc(F)c4C[C@H]3C[C@@H]12 subject_of_test="Acinetobacter baumannii" value_kind=MIC relation_symbol== quantitative_readout=0.5
chem_smiles=CN(C)[C@@H]1C(O)=C(C(N)=O)C(=O)[C@@]2(O)C(O)=C3C(=O)c4c(O)c(NC(=O)CNc5cccnc5)cc(F)c4C[C@H]3C[C@@H]12 subject_of_test="Acinetobacter baumannii" value_kind=MIC relation_symbol=> quantitative_readout=8
chem_smiles=COC[C@@H]1CCCN1CC(=O)Nc1cc(F)c2c(c1O)C(=O)C1=C(O)[C@]3(O)C(=O)C(C(N)=O)=C(O)[C@@H](N(C)C)[C@@H]3C[C@@H]1C2 subject_of_test="Acinetobacter baumannii" value_kind=MIC relation_symbol== quantitative_readout=0.5
chem_smiles=CCNCC(=O)Nc1cc(F)c2c(c1O)C(=O)C1=C(O)[C@]3(O)C(=O)C(C(N)=O)=C(O)[C@@H](N(C)C)[C@@H]3C[C@@H]1C2 subject_of_test="Acinetobacter baumannii" value_kind=MIC relation_symbol== quantitative_readout=2

====

test system: Klebsiella pneumoniae; test: Antibacterial activity against Klebsiella pneumoniae ATCC 109 13883; assay type: functional
Value kind: MIC (mg/L)

molecule=CN(C)[C@@H]1C(O)=C(C(N)=O)C(=O)[C@@]2(O)C(O)=C3C(=O)c4c(O)c(NC(=O)CN5CC[C@@H](O)C5)cc(F)c4C[C@H]3C[C@@H]12 relation_symbol== quantitative_readout=16
molecule=CN(C)[C@@H]1C(O)=C(C(N)=O)C(=O)[C@@]2(O)C(O)=C3C(=O)c4c(O)c(NC(=O)CN5CCC5)cc(F)c4C[C@H]3C[C@@H]12 relation_symbol== quantitative_readout=1
molecule=CN(C)[C@@H]1C(O)=C(C(N)=O)C(=O)[C@@]2(O)C(O)=C3C(=O)c4c(O)cccc4[C@@](C)(O)[C@H]3C[C@@H]12 relation_symbol== quantitative_readout=2
molecule=CN(C)[C@@H]1C(O)=C(C(N)=O)C(=O)[C@@]2(O)C(O)=C3C(=O)c4c(O)c(NC(=O)CN5CCOCC5)cc(F)c4C[C@H]3C[C@@H]12 relation_symbol=> quantitative_readout=32
molecule=CCNCC(=O)Nc1cc(F)c2c(c1O)C(=O)C1=C(O)[C@]3(O)C(=O)C(C(N)=O)=C(O)[C@@H](N(C)C)[C@@H]3C[C@@H]1C2 relation_symbol== quantitative_readout=1
molecule=CN(C)[C@@H]1C(O)=C(C(N)=O)C(=O)[C@@]2(O)C(O)=C3C(=O)c4c(O)c(NC(=O)CN5CC[C@H](F)C5)cc(F)c4C[C@H]3C[C@@H]12 relation_symbol== quantitative_readout=4
molecule=CN(C)[C@@H]1C(O)=C(C(N)=O)C(=O)[C@@]2(O)C(O)=C3C(=O)c4c(O)c(NC(=O)CNc5cccnc5)cc(F)c4C[C@H]3C[C@@H]12 relation_symbol== quantitative_readout=32
molecule=CN(C)[C@@H]1C(O)=C(C(N)=O)C(=O)[C@@]2(O)C(O)=C3C(=O)c4c(O)c(NC(=O)CN5CCCCC5)cc(F)c4C[C@H]3C[C@@H]12 relation_symbol== quantitative_readout=2
molecule=CN(C)[C@@H]1CCN(CC(=O)Nc2cc(F)c3c(c2O)C(=O)C2=C(O)[C@]4(O)C(=O)C(C(N)=O)=C(O)[C@@H](N(C)C)[C@@H]4C[C@@H]2C3)C1 relation_symbol=> quantitative_readout=32
molecule="CN(C)[C@@H]1C(O)=C(C(N)=O)C(=O)[C@@]2(O)C(O)=C3C(=O)c4c(O)c(NC(=O)CN5CC6CCCC6C5)cc(F)c4C[C@H]3C[C@@H]12 (some centres not stated)" relation_symbol== quantitative_readout=2
molecule=COCCNCC(=O)Nc1cc(F)c2c(c1O)C(=O)C1=C(O)[C@]3(O)C(=O)C(C(N)=O)=C(O)[C@@H](N(C)C)[C@@H]3C[C@@H]1C2 relation_symbol== quantitative_readout=2
molecule=CN(C)[C@@H]1C(O)=C(C(N)=O)C(=O)[C@@]2(O)C(O)=C3C(=O)c4c(O)c(NC(=O)CNCC(F)(F)F)cc(F)c4C[C@H]3C[C@@H]12 relation_symbol== quantitative_readout=32

====

test system: Staphylococcus aureus; test: microbe, parasite or virus in culture; type: functional; conditions: 158
Listed here are compounds together with their documented MIC.
Value kind: MIC (µg/mL)

compound=CN(C)[C@@H]1C(O)=C(C(N)=O)C(=O)[C@@]2(O)C(O)=C3C(=O)c4c(O)c(NC(=O)CN5CCOCC5)cc(F)c4C[C@H]3C[C@@H]12 endpoint_unit=µg/mL relation_symbol== quantitative_readout=8
compound=CN(C)CC(=O)Nc1cc(F)c2c(c1O)C(=O)C1=C(O)[C@]3(O)C(=O)C(C(N)=O)=C(O)[C@@H](N(C)C)[C@@H]3C[C@@H]1C2 endpoint_unit=µg/mL relation_symbol== quantitative_readout=0.25
compound=CN(C)[C@@H]1C(O)=C(C(N)=O)C(=O)[C@@]2(O)C(O)=C3C(=O)c4c(O)c(NC(=O)CNCC(F)(F)F)cc(F)c4C[C@H]3C[C@@H]12 endpoint_unit=µg/mL relation_symbol== quantitative_readout=4
compound=CN(C)[C@@H]1C(O)=C(C(N)=O)C(=O)[C@@]2(O)C(O)=C3C(=O)c4c(O)c(NC(=O)CN5CC[C@@H](O)C5)cc(F)c4C[C@H]3C[C@@H]12 endpoint_unit=µg/mL relation_symbol== quantitative_readout=16
compound=CN(C)[C@@H]1C(O)=C(C(N)=O)C(=O)[C@@]2(O)C(O)=C3C(=O)c4c(O)c(NC(=O)CNC(C)(C)C)cc(F)c4C[C@H]3C[C@@H]12 endpoint_unit=µg/mL relation_symbol== quantitative_readout=0.0625
compound=CC(C)NCC(=O)Nc1cc(F)c2c(c1O)C(=O)C1=C(O)[C@]3(O)C(=O)C(C(N)=O)=C(O)[C@@H](N(C)C)[C@@H]3C[C@@H]1C2 endpoint_unit=µg/mL relation_symbol== quantitative_readout=0.5
compound=CN(C)[C@@H]1C(O)=C(C(N)=O)C(=O)[C@@]2(O)C(O)=C3C(=O)c4c(O)c(NC(=O)CN5Cc6ccccc6C5)cc(F)c4C[C@H]3C[C@@H]12 endpoint_unit=µg/mL relation_symbol== quantitative_readout=0.25
compound=COCCNCC(=O)Nc1cc(F)c2c(c1O)C(=O)C1=C(O)[C@]3(O)C(=O)C(C(N)=O)=C(O)[C@@H](N(C)C)[C@@H]3C[C@@H]1C2 endpoint_unit=µg/mL relation_symbol== quantitative_readout=4
compound=CN(C)[C@@H]1C(O)=C(C(N)=O)C(=O)[C@@]2(O)C(O)=C3C(=O)c4c(O)c(NC(=O)CN5CCCC5)cc(F)c4C[C@H]3C[C@@H]12 endpoint_unit=µg/mL relation_symbol== quantitative_readout=0.0156
compound=CCNCC(=O)Nc1cc(F)c2c(c1O)C(=O)C1=C(O)[C@]3(O)C(=O)C(C(N)=O)=C(O)[C@@H](N(C)C)[C@@H]3C[C@@H]1C2 endpoint_unit=µg/mL relation_symbol== quantitative_readout=1
compound=CN(C)[C@@H]1C(O)=C(C(N)=O)C(=O)[C@@]2(O)C(O)=C3C(=O)c4c(O)c(NC(=O)CN5CCC5)cc(F)c4C[C@H]3C[C@@H]12 endpoint_unit=µg/mL relation_symbol== quantitative_readout=0.5
compound=CN(C)[C@@H]1C(O)=C(C(N)=O)C(=O)[C@@]2(O)C(O)=C3C(=O)c4c(O)c(NC(=O)CN5CC[C@@H](F)C5)cc(F)c4C[C@H]3C[C@@H]12 endpoint_unit=µg/mL relation_symbol== quantitative_readout=0.5
compound=CN(C)[C@@H]1C(O)=C(C(N)=O)C(=O)[C@@]2(O)C(O)=C3C(=O)c4c(O)c(NC(=O)CNc5cccnc5)cc(F)c4C[C@H]3C[C@@H]12 endpoint_unit=µg/mL relation_symbol=> quantitative_readout=32
compound=COC[C@@H]1CCCN1CC(=O)Nc1cc(F)c2c(c1O)C(=O)C1=C(O)[C@]3(O)C(=O)C(C(N)=O)=C(O)[C@@H](N(C)C)[C@@H]3C[C@@H]1C2 endpoint_unit=µg/mL relation_symbol== quantitative_readout=1
compound=CN(C)[C@@H]1C(O)=C(C(N)=O)C(=O)[C@@]2(O)C(O)=C3C(=O)c4c(O)c(NC(=O)CNc5ccccc5)cc(F)c4C[C@H]3C[C@@H]12 endpoint_unit=µg/mL relation_symbol== quantitative_readout=2
compound=CN(C)[C@@H]1CCN(CC(=O)Nc2cc(F)c3c(c2O)C(=O)C2=C(O)[C@]4(O)C(=O)C(C(N)=O)=C(O)[C@@H](N(C)C)[C@@H]4C[C@@H]2C3)C1 endpoint_unit=µg/mL relation_symbol=> quantitative_readout=32
compound=CN(C)[C@@H]1C(O)=C(C(N)=O)C(=O)[C@@]2(O)C(O)=C3C(=O)c4c(O)c(NC(=O)CN5CCCCC5)cc(F)c4C[C@H]3C[C@@H]12 endpoint_unit=µg/mL relation_symbol== quantitative_readout=0.5
compound=CN(C)c1cc(NC(=O)CNC(C)(C)C)c(O)c2c1C[C@H]1C[C@H]3[C@H](N(C)C)C(O)=C(C(N)=O)C(=O)[C@@]3(O)C(O)=C1C2=O endpoint_unit=µg/mL relation_symbol== quantitative_readout=0.125
compound=CN(C)[C@@H]1C(O)=C(C(N)=O)C(=O)[C@@]2(O)C(O)=C3C(=O)c4c(O)c(NC(=O)CN5CC[C@H](F)C5)cc(F)c4C[C@H]3C[C@@H]12 endpoint_unit=µg/mL relation_symbol== quantitative_readout=1
compound="CN(C)[C@@H]1C(O)=C(C(N)=O)C(=O)[C@@]2(O)C(O)=C3C(=O)c4c(O)c(NC(=O)CN5CC6CCCC6C5)cc(F)c4C[C@H]3C[C@@H]12 (stereo not given in full)" endpoint_unit=µg/mL relation_symbol== quantitative_readout=0.5
